Just for reference, PubChem BioAssay AID1963854 is where these values come from.

- Test system: 186277-243-T-J2-PDC complex spheroid viability;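 also: spheroids exposed to compounds for seven days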
- Test: Anticancer human tumor 186277-243-T-J2-PDC patient-derived colon adenocarcinoma cell line growth inhibition [POLQ]
- Measurement Setup: second compound 0.316 µM; first compound 0.0316 µM; hits give low values
Decision: viability, T/C beneath 90% gives met; viability, T/C meeting or exceeding 90% gives not met.

Compound | Cat
C=CCn1c(=O)c2cnc(Nc3ccc(N4CCN(C)CC4)cc3)nc2n1-c1cccc(C(C)(C)O)n1 + Cc1cccc(N(C)C(=O)C2C(O)CCN2c2nc(C)cc(C(F)(F)F)c2C#N)c1 | not met

viability, T/C under 90%? Item: Cn1ncnc1[C@H]1c2n[nH]c(=O)c3cc(F)cc(c23)N[C@@H]1c1ccc(F)cc1 + COC1C(OC(N)=O)C(O)C(Oc2ccc3c(O)c(NC(=O)c4ccc(O)c(CC=C(C)C)c4)c(=O)oc3c2C)OC1(C)C
not met

API: query returns whether the compound falls strictly under 90% in viability, T/C. Query: CC1COCCN1c1cc(C2(O)CC3CCC(C2)O3)c2cnn(-c3ccn[nH]3)c2n1 (stereo not given) + COC1C(OC(N)=O)C(O)C(Oc2ccc3c(O)c(NC(=O)c4ccc(O)c(CC=C(C)C)c4)c(=O)oc3c2C)OC1(C)C
met

is_below(viability, T/C, 90%) for Nc1ccn(C2OC(CO)C(O)C2(F)F)c(=O)n1 (stereo not given) + Cc1cccc(N(C)C(=O)C2C(O)CCN2c2nc(C)cc(C(F)(F)F)c2C#N)c1 ?
met

Lab note: viability, T/C threshold 90%. Does this compound come in strictly under it? CC(C)n1c(=O)n(C)c2cnc3cc(F)c(-c4ccc(OCCCN5CCCCC5)nc4)cc3c21 + COC1C(OC(N)=O)C(O)C(Oc2ccc3c(O)c(NC(=O)c4ccc(O)c(CC=C(C)C)c4)c(=O)oc3c2C)OC1(C)C
not met

Please determine if O=c1[nH]cc(F)c(=O)[nH]1 + Cc1cccc(N(C)C(=O)C2C(O)CCN2c2nc(C)cc(C(F)(F)F)c2C#N)c1 is below 90% in terms of viability, T/C.
met

Please state whether viability, T/C is below 90% for O=C(c1cc(Cc2n[nH]c(=O)c3ccccc23)ccc1F)N1CCN(C(=O)C2CC2)CC1 + Cc1cccc(N(C)C(=O)C2C(O)CCN2c2nc(C)cc(C(F)(F)F)c2C#N)c1
not met

In plain terms, does COc1cccc(OCCCN)c1-c1cc(Nc2cnc(C#N)cn2)n[nH]1 + Nc1ccc(C#CCN(C(=O)Cc2ncc(C(F)(F)F)cc2C(F)(F)F)c2ccc(F)cc2)nn1 come in under 90% for viability, T/C?
met

Does the reported viability, T/C of the following compound sit strictly below 90%? CC[C@@]1(O)C(=O)OCc2c1cc1n(c2=O)Cc2cc3c(CN(C)C)c(O)ccc3nc2-1 + COC1C(OC(N)=O)C(O)C(Oc2ccc3c(O)c(NC(=O)c4ccc(O)c(CC=C(C)C)c4)c(=O)oc3c2C)OC1(C)C
met
